# procedure-summary: chemical genetic growth profiling, strain panel (AID 1159580);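 also: tested at 20 µM; growth read once vehicle control cultures reached saturation at 30 °C; 1 = growth at the plate median or of vehicle wells; lower values mean less growth of the strain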
# condition-parameters: S. cerevisiae deletion strains, growth OD, locus YOL147C, strain pex11, stronger effect = lower value
The campaign covered roughly 5,500 compounds. About 2,000 (36%) were called active. Another 18% or so got no clear call; they are omitted. This is one part of the list.
Catalogue of normalized growth values
Form rule: numeric answer, no unit written next to it.

INSERT INTO assay_data (molecule, observed_measurement) VALUES
  ('CCC(C)(C)C(=O)O[C@H]1C[C@@H](C)C=C2C=C[C@H](C)[C@H](CC[C@@H]3C[C@@H](O)CC(=O)O3)[C@H]21', 1.04),
  ('C=C1C(C)C2C(Cc3ccccc3)NC(=O)C23OC(=O)/C=C/C(O)CCCC(C)C/C=C/C3C1O (centres undefined)', 0.997),
  ('CCC(C)c1cnc(CC(C)C)c(=O)n1O (centres undefined)', 1),
  ('O=C1[C@H](CCC(O)c2ccc(F)cc2)[C@@H](c2ccc(O)cc2)N1c1ccc(F)cc1 (some centres undefined)', 0.975);

Attention now turns to another entry.
For the molecule CC[C@H](C)C(=O)O[C@H]1CCC=C2C=C[C@H](C)C(CCC3C[C@@H](O)CC(=O)O3)[C@H]21 (some centres undefined) , what normalized growth is on record?
0.994

###

# procedure-summary: chemical genetic growth profiling, strain panel (AID 1159580);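 also: tested at 20 µM; growth read once vehicle control cultures reached saturation at 30 °C; 1 = growth at the plate median or of vehicle wells; lower values mean less growth of the strain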
# condition-parameters: S. cerevisiae deletion strains, growth OD, locus YLL041C, strain sdh2, stronger effect = lower value
Out of some 5,500 compounds screened, about 2,000 (36%) were called active. Inconclusive results (about 18%) are left out. This is one part of the list.
reported-property: normalized growth
A bare number is all that is needed in reply.

// below: answered compounds
INSERT INTO measurements (compound, observed_measurement) VALUES
  ('Clc1cccc(Cl)c1NC1=NCCN1', 1),
  ('CCCCC(=O)Oc1ccccc1C(=O)O', 0.986),
  ('C#CCCCCCCCCCCCC(O)CC(O)CO (stereo not drawn)', 0.986),
  ('CCCCN1CCCCC1C(=O)Nc1c(C)cccc1C (stereo not drawn)', 0.991);

Given the entry CCCCOC(=O)c1ccccc1C(=O)OCCCC , report its measured normalized growth.
0.975

How about CCCCNc1ccc(C(=O)OCCN(C)C)cc1 ?
0.998

Entry to check: CO/N=C(\C(=O)N[C@@H]1C(=O)N2C(C(=O)O)=C(CSc3nc(=O)c(O)nn3C)CS[C@H]12)c1csc(N)n1
0.949

Can you handle COc1ccc2c(c1OC)C(=O)OC2[C@H]1c2c(cc3c(c2OC)OCO3)CCN1C (stereo partly drawn) next?
0.995

Entry CCN(CC)CCOC(=O)c1ccc(N)cc1 please
0.987

Do the same for CCOC(=O)[C@H](CCc1ccccc1)N[C@@H](C)C(=O)N1[C@H](C(=O)O)C[C@@H]2CCC[C@@H]21 please
0.982

###

# procedure-summary: chemical genetic growth profiling, strain panel (AID 1159580);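 also: tested at 20 µM; growth read once vehicle control cultures reached saturation at 30 °C; 1 = growth at the plate median or of vehicle wells; lower values mean less growth of the strain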
# condition-parameters: S. cerevisiae deletion strains, growth OD, locus YJL168C, strain set2, stronger effect = lower value
The campaign covered roughly 5,500 compounds. About 2,000 (36%) were called active. Inconclusive results (about 18%) are left out. The list shows a part of the results.
reported-property: normalized growth
Output spec: single numeric token, no unit.

See these solved cases before continuing.
INSERT INTO assay_data (compound, observed_measurement) VALUES
  ('C=C1CCC(OC(C)=O)/C(C)=C/C[C@@H]2[C@@H]1CC2(C)C (stereo not given in full)', 1.02),
  ('O=C1OC(c2ccc(O)cc2)(c2ccc(O)cc2)c2ccccc21', 0.974),
  ('C=C1CCC2C(CC2(C)C)C(=O)CCC1O (stereo not given)', 1.01),
  ('CC(C)C(C)/C=C/C(C)[C@H]1CCC2C3=CCC4CC(=O)CC[C@]4(C)C3CC[C@@]21C (stereo not given in full)', 1);

Requested read-out: normalized growth. Entry: CC(C)C(C)/C=C/C(C)C1CCC2C3=CC=C4CC(O)CCC4(C)C3CCC21C (stereo not given)
1.02

Same thing, different compound: CC(=O)OC1CCC2(C)C(=CC=C3C2CCC2(C)C3CCC2C(C)/C=C/C(C)C(C)C)C1(C)C (stereo not given)
1

Could you do the same for O=S1OCC2C(CO1)C1(Cl)C(Cl)=C(Cl)C2(Cl)C1(Cl)Cl (stereo not given) , please?
0.974

// next record O=C(O)c1ccccc1-c1c2cc(Br)c(=O)cc-2oc2[c]([Hg])c(O)c(Br)cc12
0.0944

Param item: Cn1c(=O)c2[nH]cnc2n(C)c1=O
0.978

Now consider CCCCN1CCCCC1C(=O)Nc1c(C)cccc1C (stereo not given) and answer again.
0.99
